# target.or.system: leukotriene D4 (LTD4) induced contraction of guinea pig tracheal tissues (Cavia porcellus)
# Construct: Guinea pig (adult male albino Hartley strain) tracheal spiral strips; from tissue; host or cells: guinea pig trachea (spiral strips, adult male albino Hartley strain)
# Sequence (Q2NNR5 1-340): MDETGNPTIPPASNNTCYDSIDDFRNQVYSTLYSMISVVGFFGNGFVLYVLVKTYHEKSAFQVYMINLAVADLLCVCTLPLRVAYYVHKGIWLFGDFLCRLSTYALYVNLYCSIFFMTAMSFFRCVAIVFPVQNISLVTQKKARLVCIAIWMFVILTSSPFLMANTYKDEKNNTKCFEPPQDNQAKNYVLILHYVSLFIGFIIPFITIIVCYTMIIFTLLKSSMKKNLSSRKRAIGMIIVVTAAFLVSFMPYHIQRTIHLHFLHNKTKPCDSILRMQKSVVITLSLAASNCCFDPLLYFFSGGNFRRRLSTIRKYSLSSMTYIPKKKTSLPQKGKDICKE
# protocol.summary: in vitro inhibition of LTD4 induced contraction of guinea pig tracheal spiral strips
# Assay type: cell-based, guinea pig (adult male albino Hartley strain)
# condition.details: guinea pig trachea, LTD4 agonist, 30 min pretreatment with test compound
Assignment: determine reported Kb for the given compounds.
Answers are plain numbers, in nM.

> print(dat)
                            compound.smiles  readout.name  readout.number
1  CCCCCCCCCCCOc1ccc(OC)cc1C(SCCC(=O)O)SCCC(=O)O            Kb            1260
2  CCCCCCCCCCCSc1ccccc1C(SCCC(=O)O)SCCC(=O)O            Kb            1000
3  CCCCCCCCCCCCc1ccsc1C(SCCC(=O)O)SCCC(=O)O            Kb            1260

Now, please, on to the next compound.
Query: Quick check: Kb of "CCCCCCCCCCCOc1ccc(Br)cc1C(SCCC(=O)O)SCCC(=O)O" ?
Result: 1000

---

Assignment: determine reported Kb for the given molecules.
# target.or.system: leukotriene D4 (LTD4) induced contraction of guinea pig tracheal tissues (Cavia porcellus, UniProt Q2NNR5)
# Construct: Guinea pig (adult male albino Hartley strain) tracheal spiral strips; from tissue; host or cells: guinea pig trachea (spiral strips, adult male albino Hartley strain)
# Sequence (Q2NNR5 1-340): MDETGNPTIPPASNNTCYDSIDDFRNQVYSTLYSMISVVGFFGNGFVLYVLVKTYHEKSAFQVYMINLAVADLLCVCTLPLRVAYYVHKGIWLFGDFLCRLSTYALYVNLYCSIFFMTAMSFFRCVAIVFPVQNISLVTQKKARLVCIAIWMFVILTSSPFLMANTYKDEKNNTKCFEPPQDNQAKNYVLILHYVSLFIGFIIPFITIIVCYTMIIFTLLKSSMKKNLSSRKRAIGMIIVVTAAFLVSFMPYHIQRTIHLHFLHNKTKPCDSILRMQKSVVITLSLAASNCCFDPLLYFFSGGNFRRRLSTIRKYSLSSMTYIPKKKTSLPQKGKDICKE
# protocol.summary: in vitro inhibition of LTD4 induced contraction of guinea pig tracheal spiral strips
# Type: cell-based, guinea pig (adult male albino Hartley strain)
# condition.details: guinea pig trachea, LTD4 agonist, 30 min pretreatment with test compound
One number for each entry, in nM.

Example entries begin here.
> print(dat)
                            compound.smiles  readout.name  value.unit  readout.number
1  CCCCCCCCCOc1cccc(C(SCCC(=O)O)SCCC(=O)O)c1            Kb          nM            1260
2  CCCCCCCCCCCOc1ccc(O)cc1C(SCCC(=O)O)SCCC(=O)O            Kb          nM            1000
3  O=C(O)CCSC(SCCC(=O)O)c1ccccc1CCCCCC/C=C\c1ccccc1            Kb          nM             631

Now, please, on to the next molecule.
Query: Quick check: Kb of "CCCCC/C=C\C/C=C\COc1cccc(C(SCCC(=O)O)SCCC(=O)O)c1" ?
Result: 794
